# Assay explanation: Plasma pharmacokinetic profile of cannabidiol after a single topical dose (In-life Study 1901002-01, LC-MS/MS)
# Type: in vivo, CD-1 mice
# Condition: CD-1, topical or ocular; Group 4: KBM.CBD.011 Formulation C 2.5% CBD, single topical dose 0.1 mL, mean dose 75.76 mg/kg, mouse plasma
# Experimental: The objective of this study was to determine the plasma pharmacokinetic (PK) profile of test article cannabidiol (CBD) following the administration of a single topical dose to CD-1 mice. The work was conducted at Alliance Pharma with a title of In-life Study 1901002-01. […] Sample Analyses: Study samples were analyzed using a bioanalytical method qualified by Alliance Pharma. […]

Compound	AUC(0-inf), ng·h/mL
C=C(C)[C@@H]1CCC(C)=C[C@H]1c1c(O)cc(CCCCC)cc1O [Cannabidiol]	1510

---

# Assay explanation: Plasma pharmacokinetic profile of cannabidiol after a single topical dose (In-life Study 1901002-01, LC-MS/MS)
# Type: in vivo, CD-1 mice
# Condition: CD-1, topical or ocular; Group 1: AEM.CBD.006 Formulation A 2.5% CBD, single topical dose 0.1 mL, mean dose 78.69 mg/kg, mouse plasma

Smiles data	Units symbol	Cmax
C=C(C)[C@@H]1CCC(C)=C[C@H]1c1c(O)cc(CCCCC)cc1O	ng/mL	427

---

# Assay explanation: Plasma pharmacokinetic profile of cannabidiol after a single topical dose (In-life Study 1901002-01, LC-MS/MS)
# Type: in vivo, CD-1 mice
# Condition: CD-1, topical or ocular; Group 2: AEM.CBD.007 Formulation B 2.5% CBD, single topical dose 0.1 mL, mean dose 76.61 mg/kg, mouse plasma

Smiles data	Cmax, ng/mL
C=C(C)[C@@H]1CCC(C)=C[C@H]1c1c(O)cc(CCCCC)cc1O	360

---

# Assay explanation: Plasma pharmacokinetic profile of cannabidiol after a single topical dose (In-life Study 1901002-01, LC-MS/MS)
# Type: in vivo, CD-1 mice
# Condition: CD-1, topical or ocular; Group 1: AEM.CBD.006 Formulation A 2.5% CBD, single topical dose 0.1 mL, mean dose 78.69 mg/kg, mouse plasma

Smiles data	AUC(0-t) / µg·h/mL
C=C(C)[C@@H]1CCC(C)=C[C@H]1c1c(O)cc(CCCCC)cc1O	1.76

---

# Assay explanation: Plasma pharmacokinetic profile of cannabidiol after a single topical dose (In-life Study 1901002-01, LC-MS/MS)
# Type: in vivo, CD-1 mice
# Condition: CD-1, topical or ocular; Group 4: KBM.CBD.011 Formulation C 2.5% CBD, single topical dose 0.1 mL, mean dose 75.76 mg/kg, mouse plasma
# Protocol: The objective of this study was to determine the plasma pharmacokinetic (PK) profile of test article cannabidiol (CBD) following the administration of a single topical dose to CD-1 mice. The work was conducted at Alliance Pharma with a title of In-life Study 1901002-01. […] Sample Analyses: Study samples were analyzed using a bioanalytical method qualified by Alliance Pharma. […]

Smiles data	Cmax [ng/mL]
C=C(C)[C@@H]1CCC(C)=C[C@H]1c1c(O)cc(CCCCC)cc1O	332

---

# Assay explanation: Plasma pharmacokinetic profile of cannabidiol after a single topical dose (In-life Study 1901002-01, LC-MS/MS)
# Assay type: in vivo, CD-1 mice
# Condition: CD-1, topical or ocular; Group 2: AEM.CBD.007 Formulation B 2.5% CBD, single topical dose 0.1 mL, mean dose 76.61 mg/kg, mouse plasma

Smiles data	Units symbol	AUC(0-t)
C=C(C)[C@@H]1CCC(C)=C[C@H]1c1c(O)cc(CCCCC)cc1O	µg·h/mL	1.56
